Reported melting point by item:

compound=FC(F)(F)c1cccc(-c2cc(Cl)n3nccc3n2)c1 measured_value="137 to 139 °C"

Field request: melting point | item: `N#Cc1ccc(C(=O)Cl)c(CCl)c1`
44 to 44.5 °C

Then COc1ccc(COc2c(C)c(C)c3c(c2C)C(c2ccc(C(C)C)cc2)C(C)(C)O3)cc1 (configuration not stated) ?
95 to 96 °C

Then what about the compound `CCCCCCCCCCCCCCCCCCNC(=O)OC(=O)CCCCCCCCCCC` ?
83 °C

Please do the same for `CC(=O)N(C)C1(c2ccccc2)CCN(Cc2ccccc2)CC1` as well.
104 °C

Next: `CCOC(=O)c1cnn(-c2ccc(Cl)cc2)c1N`
150 to 156 °C

Also, `COc1cn(-c2ccc(OS(=O)(=O)C(F)(F)F)cc2F)nc(-c2ccnn2-c2ccccc2)c1=O` please.
108 to 110 °C

Lookup `BrC1=C(Br)C(Br)(Br)C(Br)=C1Br`
87 to 88 °C

The measurements presented in this section are drawn from a melting point compilation (Tetko et al.; mined from patent text by program, amines drawn as free bases though some values may be those of a salt).
